# CONDITION DETAILS: octanol/water
# Description: Partition coefficient (logD) (chloroform/buffer)
ASSAY READOUT: logD
Give bare numbers.

Dear reader, for each entry below, please note its logD.
1. NS(=O)(=O)c1ccc(N/C(S)=N/C(C(=O)O)C(O)c2ccccc2)cc1 (centres undefined)
2. NS(=O)(=O)c1ccc(N/C(S)=N/CCC(=O)NC(Cc2c[nH]cn2)C(=O)O)cc1 (centres undefined)
3. NS(=O)(=O)c1ccc(N/C(S)=N/C(CO)C(=O)O)cc1 (centres undefined)
4. NS(=O)(=O)c1ccc(NC(=S)NC(CC(=O)O)C(=O)O)cc1 (centres undefined)

1. 2.314
2. 0.725
3. 1.459
4. 0.05

###

# TEST SUMMARY: physchem
# CONDITION DETAILS: buffer, pH 7.4
# Description: Solubility (in uM) in pH 7.40 at 25 degree C
Can you tell me solubility for the items I'm about to list?
Numbers only, in mM.

# annotated cases, reported solubility shown
NS(=O)(=O)c1nnc(NS(=O)(=O)c2ccccc2)s1 [BENZOLAMIDE]	1.2
NS(=O)(=O)c1ccc(N/C(S)=N/CCC(=O)NC(Cc2c[nH]cn2)C(=O)O)cc1 (centres undefined)	52
NS(=O)(=O)c1ccc(N/C(S)=N/C(C(=O)O)C(O)c2ccccc2)cc1 (centres undefined)	48

# evaluate next
Tell me measured solubility for CCOc1ccc2nc(S(N)(=O)=O)sc2c1 [ETHOXZOLAMIDE] please.
0.04

###

Kindly supply the reported pKi values for the records listed here.
# ASSAY SYSTEM: Carbonic anhydrase 4 (Bos taurus)
# Sequence (Q95323 whole entry): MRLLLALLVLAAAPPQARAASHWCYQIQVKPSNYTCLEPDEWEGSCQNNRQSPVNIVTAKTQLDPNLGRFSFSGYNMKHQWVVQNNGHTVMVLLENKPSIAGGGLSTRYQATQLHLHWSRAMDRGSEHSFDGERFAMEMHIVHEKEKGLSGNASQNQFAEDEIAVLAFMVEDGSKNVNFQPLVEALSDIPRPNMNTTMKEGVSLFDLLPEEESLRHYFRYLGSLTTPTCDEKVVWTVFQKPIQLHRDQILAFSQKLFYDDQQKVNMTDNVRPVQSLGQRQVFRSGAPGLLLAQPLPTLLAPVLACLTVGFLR
Give bare numbers, as −log10 of the molar value.

NS(=O)(=O)c1ccc(NC(S)=NC(Cc2c[nH]cn2)C(=O)NC(Cc2ccccc2)C(=O)O)cc1 (stereo unspecified)	8.05

Take each entry in turn and give its pKi.
1. NC(=O)CC(/N=C(\S)Nc1ccc(S(N)(=O)=O)cc1)C(=O)O (stereo unspecified)
2. NS(=O)(=O)c1ccc(N/C(S)=N/C(C(=O)O)c2ccccc2)cc1 (stereo unspecified)
3. NS(=O)(=O)c1ccc(NC(=S)N2CCC[C@H]2C(=O)NCC(=O)NCC(=O)O)cc1
4. CC(/N=C(/S)Nc1ccc(S(N)(=O)=O)cc1)C(=O)O (stereo unspecified)
5. NS(=O)(=O)c1ccc(N/C(S)=N/CCC(=O)NC(Cc2c[nH]cn2)C(=O)O)cc1 (stereo unspecified)
6. NS(=O)(=O)c1ccc(N/C(S)=N\Cc2ccccn2)cc1
7. NS(=O)(=O)c1ccc(NC(=S)NC(CC(=O)O)C(=O)O)cc1 (stereo unspecified)
8. CC(C)CC(/N=C(\S)Nc1ccc(S(N)(=O)=O)cc1)C(=O)NCC(=O)O (stereo unspecified)

[7.96, 7.82, 7.96, 7.44, 8.00, 7.12, 7.77, 7.89]

Hi! Can you tell me pKi for each of these compounds?
1. N=C(N)NCCCC(/N=C(\S)Nc1ccc(S(N)(=O)=O)cc1)C(=O)O (stereo unspecified)
2. NS(=O)(=O)c1ccc(NC(=S)NC(CC(=O)O)C(=O)NC(CC(=O)O)C(=O)O)cc1 (stereo unspecified)
3. NS(=O)(=O)c1ccc(N/C(S)=N\CCc2ccccn2)cc1
4. NS(=O)(=O)c1ccc(NC(=S)NCC(=O)NCC(=O)O)cc1
5. NS(=O)(=O)c1ccc(N/C(S)=N/C(C(=O)O)C(O)c2ccccc2)cc1 (stereo unspecified)

1. 7.21
2. 7.49
3. 7.11
4. 7.49
5. 8.05
